Settings: in isopropanol, 313.15 K
measured metric: solubility (mole fraction)
Respond numerically, and do not add a unit to the figure.

So what's the measured solubility (mole fraction) for this one? CC(C)[C@H](C)[C@@H](O)[C@H](O)[C@@H](C)[C@H]1CC[C@H]2[C@@H]3COC(=O)[C@H]4C[C@H](O)[C@H](O)C[C@]4(C)[C@H]3CC[C@]12C
0.0008

* * *

Conditions: in acetonitrile, 313.15 K
measured metric: solubility (mole fraction)
Respond numerically, and do not add a unit to the figure.

So what's the measured solubility (mole fraction) for this one? CC(C)[C@H](C)[C@@H](O)[C@H](O)[C@@H](C)[C@H]1CC[C@H]2[C@@H]3COC(=O)[C@H]4C[C@H](O)[C@H](O)C[C@]4(C)[C@H]3CC[C@]12C
0.00149

* * *

Conditions: in isopropanol, 323.15 K
measured metric: solubility (mole fraction)
Respond numerically, and do not add a unit to the figure.

So what's the measured solubility (mole fraction) for this one? CC(C)[C@H](C)[C@@H](O)[C@H](O)[C@@H](C)[C@H]1CC[C@H]2[C@@H]3COC(=O)[C@H]4C[C@H](O)[C@H](O)C[C@]4(C)[C@H]3CC[C@]12C
0.00104

* * *

Conditions: in n-heptane, 313.15 K
measured metric: solubility (mole fraction)
Respond numerically, and do not add a unit to the figure.

So what's the measured solubility (mole fraction) for this one? CC(C)[C@H](C)[C@@H](O)[C@H](O)[C@@H](C)[C@H]1CC[C@H]2[C@@H]3COC(=O)[C@H]4C[C@H](O)[C@H](O)C[C@]4(C)[C@H]3CC[C@]12C
0.00039

* * *

Conditions: in n-hexane, 278.15 K
measured metric: solubility (mole fraction)
Respond numerically, and do not add a unit to the figure.

So what's the measured solubility (mole fraction) for this one? CC(C)[C@H](C)[C@@H](O)[C@H](O)[C@@H](C)[C@H]1CC[C@H]2[C@@H]3COC(=O)[C@H]4C[C@H](O)[C@H](O)C[C@]4(C)[C@H]3CC[C@]12C
9e-05

* * *

Conditions: in isopropanol, 298.15 K
measured metric: solubility (mole fraction)
Respond numerically, and do not add a unit to the figure.

So what's the measured solubility (mole fraction) for this one? CC(C)[C@H](C)[C@@H](O)[C@H](O)[C@@H](C)[C@H]1CC[C@H]2[C@@H]3COC(=O)[C@H]4C[C@H](O)[C@H](O)C[C@]4(C)[C@H]3CC[C@]12C
0.00054

* * *

Conditions: in THF, 323.15 K
measured metric: solubility (mole fraction)
Respond numerically, and do not add a unit to the figure.

So what's the measured solubility (mole fraction) for this one? CC(C)[C@H](C)[C@@H](O)[C@H](O)[C@@H](C)[C@H]1CC[C@H]2[C@@H]3COC(=O)[C@H]4C[C@H](O)[C@H](O)C[C@]4(C)[C@H]3CC[C@]12C
0.43

* * *

Details: in acetone, 288.15 K
measured metric: solubility (mole fraction)
Respond numerically, and do not add a unit to the figure.

So what's the measured solubility (mole fraction) for this one? CC(C)[C@H](C)[C@@H](O)[C@H](O)[C@@H](C)[C@H]1CC[C@H]2[C@@H]3COC(=O)[C@H]4C[C@H](O)[C@H](O)C[C@]4(C)[C@H]3CC[C@]12C
0.124

* * *

Details: in THF, 283.15 K
measured metric: solubility (mole fraction)
Respond numerically, and do not add a unit to the figure.

So what's the measured solubility (mole fraction) for this one? CC(C)[C@H](C)[C@@H](O)[C@H](O)[C@@H](C)[C@H]1CC[C@H]2[C@@H]3COC(=O)[C@H]4C[C@H](O)[C@H](O)C[C@]4(C)[C@H]3CC[C@]12C
0.185

* * *

Details: in n-hexane, 298.15 K
measured metric: solubility (mole fraction)

So what's the measured solubility (mole fraction) for this one? CC(C)[C@H](C)[C@@H](O)[C@H](O)[C@@H](C)[C@H]1CC[C@H]2[C@@H]3COC(=O)[C@H]4C[C@H](O)[C@H](O)C[C@]4(C)[C@H]3CC[C@]12C
0.00025

* * *

Settings: in isopropanol, 303.15 K
measured metric: solubility (mole fraction)

So what's the measured solubility (mole fraction) for this one? CC(C)[C@H](C)[C@@H](O)[C@H](O)[C@@H](C)[C@H]1CC[C@H]2[C@@H]3COC(=O)[C@H]4C[C@H](O)[C@H](O)C[C@]4(C)[C@H]3CC[C@]12C
0.00062

* * *

Settings: in n-butanol, 288.15 K
measured metric: solubility (mole fraction)
Respond numerically, and do not add a unit to the figure.

So what's the measured solubility (mole fraction) for this one? CC(C)[C@H](C)[C@@H](O)[C@H](O)[C@@H](C)[C@H]1CC[C@H]2[C@@H]3COC(=O)[C@H]4C[C@H](O)[C@H](O)C[C@]4(C)[C@H]3CC[C@]12C
0.00062

* * *

Details: in isopropanol, 293.15 K
measured metric: solubility (mole fraction)
Respond numerically, and do not add a unit to the figure.

So what's the measured solubility (mole fraction) for this one? CC(C)[C@H](C)[C@@H](O)[C@H](O)[C@@H](C)[C@H]1CC[C@H]2[C@@H]3COC(=O)[C@H]4C[C@H](O)[C@H](O)C[C@]4(C)[C@H]3CC[C@]12C
0.00047

* * *

Conditions: in chloroform, 303.15 K
measured metric: solubility (mole fraction)
Respond numerically, and do not add a unit to the figure.

So what's the measured solubility (mole fraction) for this one? CC(C)[C@H](C)[C@@H](O)[C@H](O)[C@@H](C)[C@H]1CC[C@H]2[C@@H]3COC(=O)[C@H]4C[C@H](O)[C@H](O)C[C@]4(C)[C@H]3CC[C@]12C
0.0016

* * *

Settings: in THF, 298.15 K
measured metric: solubility (mole fraction)
Respond numerically, and do not add a unit to the figure.

So what's the measured solubility (mole fraction) for this one? CC(C)[C@H](C)[C@@H](O)[C@H](O)[C@@H](C)[C@H]1CC[C@H]2[C@@H]3COC(=O)[C@H]4C[C@H](O)[C@H](O)C[C@]4(C)[C@H]3CC[C@]12C
0.269

* * *

Details: in n-hexane, 318.15 K
measured metric: solubility (mole fraction)
Respond numerically, and do not add a unit to the figure.

So what's the measured solubility (mole fraction) for this one? CC(C)[C@H](C)[C@@H](O)[C@H](O)[C@@H](C)[C@H]1CC[C@H]2[C@@H]3COC(=O)[C@H]4C[C@H](O)[C@H](O)C[C@]4(C)[C@H]3CC[C@]12C
0.00051

* * *

Conditions: in acetonitrile, 303.15 K
measured metric: solubility (mole fraction)
Respond numerically, and do not add a unit to the figure.

So what's the measured solubility (mole fraction) for this one? CC(C)[C@H](C)[C@@H](O)[C@H](O)[C@@H](C)[C@H]1CC[C@H]2[C@@H]3COC(=O)[C@H]4C[C@H](O)[C@H](O)C[C@]4(C)[C@H]3CC[C@]12C
0.00118

* * *

Settings: in n-hexane, 308.15 K
measured metric: solubility (mole fraction)
Respond numerically, and do not add a unit to the figure.

So what's the measured solubility (mole fraction) for this one? CC(C)[C@H](C)[C@@H](O)[C@H](O)[C@@H](C)[C@H]1CC[C@H]2[C@@H]3COC(=O)[C@H]4C[C@H](O)[C@H](O)C[C@]4(C)[C@H]3CC[C@]12C
0.00037

* * *

Conditions: in methanol, 318.15 K
measured metric: solubility (mole fraction)
Respond numerically, and do not add a unit to the figure.

So what's the measured solubility (mole fraction) for this one? CC(C)[C@H](C)[C@@H](O)[C@H](O)[C@@H](C)[C@H]1CC[C@H]2[C@@H]3COC(=O)[C@H]4C[C@H](O)[C@H](O)C[C@]4(C)[C@H]3CC[C@]12C
0.099

* * *

Settings: in n-hexane, 323.15 K
measured metric: solubility (mole fraction)
Respond numerically, and do not add a unit to the figure.

So what's the measured solubility (mole fraction) for this one? CC(C)[C@H](C)[C@@H](O)[C@H](O)[C@@H](C)[C@H]1CC[C@H]2[C@@H]3COC(=O)[C@H]4C[C@H](O)[C@H](O)C[C@]4(C)[C@H]3CC[C@]12C
0.00059

* * *

Settings: in n-hexane, 288.15 K
measured metric: solubility (mole fraction)
Respond numerically, and do not add a unit to the figure.

So what's the measured solubility (mole fraction) for this one? CC(C)[C@H](C)[C@@H](O)[C@H](O)[C@@H](C)[C@H]1CC[C@H]2[C@@H]3COC(=O)[C@H]4C[C@H](O)[C@H](O)C[C@]4(C)[C@H]3CC[C@]12C
0.00016

* * *

Details: in chloroform, 278.15 K
measured metric: solubility (mole fraction)
Respond numerically, and do not add a unit to the figure.

So what's the measured solubility (mole fraction) for this one? CC(C)[C@H](C)[C@@H](O)[C@H](O)[C@@H](C)[C@H]1CC[C@H]2[C@@H]3COC(=O)[C@H]4C[C@H](O)[C@H](O)C[C@]4(C)[C@H]3CC[C@]12C
0.00083
